Recorded values, source BindingDB's records for PubMed 9190866.

Sequence of the target: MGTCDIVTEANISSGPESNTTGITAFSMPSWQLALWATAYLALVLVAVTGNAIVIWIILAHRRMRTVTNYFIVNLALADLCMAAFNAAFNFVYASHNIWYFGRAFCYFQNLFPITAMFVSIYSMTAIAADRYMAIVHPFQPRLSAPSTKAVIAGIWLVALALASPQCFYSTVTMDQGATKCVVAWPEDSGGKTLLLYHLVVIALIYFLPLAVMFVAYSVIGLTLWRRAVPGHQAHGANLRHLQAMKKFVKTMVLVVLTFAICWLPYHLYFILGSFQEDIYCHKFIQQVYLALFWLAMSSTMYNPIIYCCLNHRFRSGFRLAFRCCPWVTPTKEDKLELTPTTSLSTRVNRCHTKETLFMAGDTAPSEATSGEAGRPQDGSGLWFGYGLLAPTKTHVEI
property.label: Ki

INPUT: Reported Ki for COc1ccccc1CN[C@H]1CCCN[C@H]1c1ccccc1 : what is it?
OUTPUT: > 10 µM
